Procedure details: Transport of morroniside across Caco-2 cell monolayers (bidirectional, concentration and pH)
Format: in vitro ADME, human
Settings: human, Caco-2, pH 7.4, AP side pH 7.4; 25μM morroniside; 37 °C; n = 3; read-out: PappAB
Quantity kind: Papp A→B at 180 min, 25 μM (×10⁻⁶ cm/s)
One number for each entry, in ×10⁻⁶ cm/s.

Input: For COC(=O)C1=CO[C@@H](O[C@@H]2O[C@H](CO)[C@@H](O)[C@H](O)[C@H]2O)[C@@H]2[C@H](C)O[C@@H](O)C[C@H]12 [morroniside, Morroniside] , what is its reported Papp A→B at 180 min, 25 μM?
Output: 1.92
